subject-of-test: RARβ2 (Homo sapiens)
Construct: expressed in transfected cells
procedure-text: Receptor Selection and Amplification Technology (R-SAT) functional receptor assay
Assay type: cell-based
condition-notes: Table 1, read-out: pEC50 (converted)
attribute-measured: EC50 (nM)

Cc1sc(-c2ccc(C(=O)O)cc2)nc1OCC(=O)NC(C)CCC(C)C (stereo not shown) :: 676
Cc1sc(-c2ccc(C(=O)O)cc2)nc1OCC(=O)NC1CCC(C)CC1 (stereo not shown) :: 708
CCCCNC(=O)COc1nc(-c2ccc(C(=O)O)cc2)sc1C :: 832
CCCCCCCCc1ccc(-c2ccc(C(=O)O)cc2)cc1 :: 513
CCCCCCc1ccc(-c2ccc(C(=O)Nc3ccc(C)cn3)cc2)cc1 :: 891
CCCCCCCCc1ccc(-c2ccc(C(=O)O)c(C)c2)cc1 :: 676
CCCCCCCCOc1ccc(-c2ccc(C(=O)NCCc3ccccn3)cc2)cc1 :: 661

* * *

subject-of-test: RARβ2 (Homo sapiens, UniProt P10826)
Construct: expressed in transfected cells
Sequence (P10826 1-448 isoform P10826-2): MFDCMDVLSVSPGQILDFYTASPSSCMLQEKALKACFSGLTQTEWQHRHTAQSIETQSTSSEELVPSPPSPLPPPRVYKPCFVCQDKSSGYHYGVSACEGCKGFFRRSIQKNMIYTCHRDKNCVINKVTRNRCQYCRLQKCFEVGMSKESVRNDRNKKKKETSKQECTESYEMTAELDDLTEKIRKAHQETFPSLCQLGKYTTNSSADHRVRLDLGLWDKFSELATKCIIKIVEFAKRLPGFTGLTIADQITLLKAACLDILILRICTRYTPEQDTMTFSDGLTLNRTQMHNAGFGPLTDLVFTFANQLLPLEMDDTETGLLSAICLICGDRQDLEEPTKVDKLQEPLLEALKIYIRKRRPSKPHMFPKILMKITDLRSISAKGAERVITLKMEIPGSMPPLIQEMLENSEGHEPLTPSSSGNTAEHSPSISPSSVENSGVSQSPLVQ
procedure-text: Receptor Selection and Amplification Technology (R-SAT) functional receptor assay
Format: cell-based
condition-notes: Table 1, efficacy relative to the maximal response of the reference ligand Am-580, read-out: % Eff.
attribute-measured: Emax (%)

CCCCCCOc1cc(C)c(-c2ccc(C(=O)O)cc2)cc1C :: 78

a: CCCCCCCCOc1ccc(-c2ccc(C(=O)O)cc2)cc1
b: Cc1sc(-c2ccc(C(=O)O)cc2)nc1OCC(=O)NC1CCCC1
IN: Looking at a and b , which one comes out lower in Emax terms? Your choice should be expressed through its label.
OUT: b
(b: 39%, a: 70%)

* * *

subject-of-test: RARβ2 (Homo sapiens, UniProt P10826)
Construct: expressed in transfected cells
Sequence (P10826 1-448 isoform P10826-2): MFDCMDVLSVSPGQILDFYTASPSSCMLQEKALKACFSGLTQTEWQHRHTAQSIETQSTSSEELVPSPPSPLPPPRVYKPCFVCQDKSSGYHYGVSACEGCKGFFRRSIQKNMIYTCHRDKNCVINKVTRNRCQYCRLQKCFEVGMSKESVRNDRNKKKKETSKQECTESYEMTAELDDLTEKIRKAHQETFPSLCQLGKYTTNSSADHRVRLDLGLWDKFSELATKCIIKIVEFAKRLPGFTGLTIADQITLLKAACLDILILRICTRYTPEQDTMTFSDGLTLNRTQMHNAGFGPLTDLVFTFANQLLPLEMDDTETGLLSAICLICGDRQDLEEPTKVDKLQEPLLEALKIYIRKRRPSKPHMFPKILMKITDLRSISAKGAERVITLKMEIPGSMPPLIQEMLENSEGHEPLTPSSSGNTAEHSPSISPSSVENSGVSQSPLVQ
procedure-text: Receptor Selection and Amplification Technology (R-SAT) functional receptor assay
Assay type: cell-based
condition-notes: Table 1, efficacy relative to the maximal response of the reference ligand Am-580, read-out: % Eff.
attribute-measured: Emax (%)

Examples with their reported Emax follow.
CCCCCCOc1ccc(-c2ccc(C(=O)O)cc2)cc1 :: 72
Cc1sc(-c2ccc(C(=O)O)cc2)nc1OCC(=O)NC1CCC(C)CC1 (centres unmarked) :: 66
CCCCCCCCOc1ccc(-c2ccc(C(=O)NCCc3ccccn3)cc2)cc1 :: 39
CCCCOCCOc1ccc(-c2ccc(C(=O)O)cc2)cc1 :: 108
CCCC1CCCC(c2ccc(-c3ccc(C(=O)O)cc3)cc2)CC1 (centres unmarked) :: 59
CCCCCCCCc1ccc(-c2ccc(C(=O)NS(C)(=O)=O)cc2)cc1 :: 51

1: CCCCCCCc1ccc(-c2ccc(C(=O)O)cc2)cc1
2: CCCCCCCc1ccc(-c2ccc(C(=O)NCCc3ccccn3)cc2)cc1
IN: Which value of Emax is numerically greater: that of 1 or that of 2 ? Your choice should be expressed through its label.
OUT: 1
(1: 76%, 2: 35%)
